Assay: NCI Yeast Anticancer Drug Screen. Data for the mec2-1 strain (AID 157)
Details: S. cerevisiae mec2-1 strain, at 5.0 µM (retest, dose inferred, filed as 0.5), active compounds read high
About 79,000 compounds went through this panel and 15% of them were active in at least one assay; those are over-represented in the sample as a whole.
Measured growth inhibition accompanies every entry in the list below.
All answers are understood in %, so give the number only.

{"columns": ["Molecule", "Quantity Name", "Observed"],
 "data": [
  ["O=[N+]([O-])c1cccc2nc3ccccc3c(NCCc3cccc[n+]3[O-])c12", "growth inhibition", 25],
  ["CCOC(=O)[C@]1(Br)CC[C@@]1(Br)C(=O)OCC", "growth inhibition", 29]
]}

q: # return recorded growth inhibition for entry Cc1cc(C)c(N2C(=O)CC(Sc3ccccc3N)C2=O)c(C)c1 (stereo not drawn)
a: 45

q: # return recorded growth inhibition for input `O=C(NCCCCCN1CCC2(CCCCC2)CC1)C(C1CCCCC1)C1CCCCC1`
a: -22

---

Experiment: NCI Yeast Anticancer Drug Screen. Data for the CLN2oe strain (AID 163);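 also: 0% = growth of vehicle-only control cultures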
Conditions: S. cerevisiae CLN2oe strain, at 11.0 µM, active compounds read high
About 79,000 compounds went through this panel and 15% of them were active in at least one assay; those are over-represented in the sample as a whole.
Quantity Name: growth inhibition (%)
Number only, in %; omit the unit.

{"columns": ["Compound", "growth inhibition (%)"],
 "data": [
  ["CCCCOC(=O)CSSCC(=O)OCCCC", 8],
  ["S=c1nc(Cl)cc2[nH]c(Cl)cn12", 3],
  ["COC(=O)c1ccc2c(c1)Cc1ccccc1-2", -4]
]}

q: Tell me measured growth inhibition for `COc1ccc2oc(-c3ccc(Cl)cc3)c(N3CCN(C)CC3)c2c1` please.
a: 98

q: For the compound `CN(CC(=O)O)c1ccc(/C=C/c2ccnc3ccccc23)cc1` , give its measured growth inhibition value.
a: -9

q: Quote growth inhibition reported for `Nc1ccc(CCl)cc1Cc1c(O)ccc2ccccc12` please.
a: 3

q: Output growth inhibition of `BrCc1ccccc1C(c1ccccc1)c1ccccc1`
a: 97

q: Dear colleague, please send me the reported growth inhibition for `Clc1c(Cl)c(Cl)c2n[nH]nc2c1Cl` when you can.
a: 1

q: Given the compound `Clc1cc(Cc2ccc(N=C/C=C/c3ccccc3)c(Cl)c2)ccc1N=C/C=C\c1ccccc1` , write its reported growth inhibition.
a: -20

---

Assay: NCI Yeast Anticancer Drug Screen. Data for the rad14 strain (AID 159);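 also: 0% = growth of vehicle-treated control cultures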
Conditions: S. cerevisiae rad14 strain growth inhibition; at 100.0 µM; active compounds read high
About 79,000 compounds went through this panel and 15% of them were active in at least one assay; those are over-represented in the sample as a whole. Activity calls are given as the source filed them. Cut-off read from the data, not from the text of the source: active = growth inhibition above about 70%; inactive = the rest.
Quantity Name: growth inhibition

{"columns": ["Compound Smiles", "growth inhibition"],
 "data": [
  ["c1ccc2c(c1)ccc1c3ccncc3ccc21", "96% (active)"],
  ["S=c1[nH]c2c(Cl)c(Cl)c(Cl)c(Cl)c2[nH]1", "96% (active)"],
  ["COc1ccc(/C=C(\\NC(=O)c2ccccc2)C(=O)NN(C)c2ccnc3cc(Cl)ccc23)cc1OC", "6% (inactive)"],
  ["O=C1CC(=O)N(C2CCCCC2)C(=O)N1c1ccccc1S(=O)(=O)Oc1ccccc1", "18% (inactive)"],
  ["COc1cc2c(cc1C[N+](C)(C)CSc1ccccc1)-c1ccccc1CC2", "98% (active)"]
]}

q: Answer with the recorded growth inhibition of `O=Nn1c2ccccc2c2ccccc21` only.
a: 92% (active)

q: Name the recorded growth inhibition of the item `Oc1ccc(Br)cc1C=NC1CCCCC1` in your answer.
a: 99% (active)

---

The following molecules are shown together with reported growth inhibition values.
Test: NCI Yeast Anticancer Drug Screen. Data for the wt1 strain (AID 149);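 also: 0% = growth of vehicle-treated wt1 cultures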
Details: S. cerevisiae wt1 strain (SPY 50644) growth inhibition; at 11.0 µM; active compounds read high
Compounds without any hit were thinned out: in the full panel of roughly 79,000, 15% have a hit.
Field format: number, assumed %, no unit text.

Past entries and their recorded results:
{"columns": ["Molecule", "growth inhibition, %"],
 "data": [
  ["CN(N=O)c1ccc(/C=C/c2ccnc3ccccc23)cc1", 8],
  ["Cc1cc(C)c(N2C(=O)CC(Sc3ccccc3N)C2=O)c(C)c1 (stereo unspecified)", -58],
  ["Cc1onc(-c2ccccc2Cl)c1C1=N/C(=C/c2cc(Cl)cc(Cl)c2O)C(=O)O1", -26],
  ["c1ccc2c(c1)ccc1c3ccncc3ccc21", 47],
  ["Cc1cccc2c1N=C(C(F)(F)F)CC2=O", 2]
]}

# next molecule below
q: Specify growth inhibition for CC1(C)C(C=O)=CCC1CC(N)=O (stereo unspecified) and stop.
a: 2

---

Overview of reported growth inhibition across a group of compounds:
Assay: NCI Yeast Anticancer Drug Screen. Data for the rad50EPP+ strain (AID 151);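 also: 0% = growth of vehicle-treated control cultures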
Conditions: S. cerevisiae rad50 mutant strain, at 33.0 µM, active compounds read high
Compounds without any hit were thinned out: in the full panel of roughly 79,000, 15% have a hit.
Numeric answer only, unit % assumed.

Example compounds with recorded growth inhibition:
{"columns": ["Compound", "growth inhibition / %"],
 "data": [
  ["CN(NC(=O)/C(=C/c1ccc(O)cc1)NC(=O)c1ccccc1)c1ccnc2cc(Cl)ccc12", 34],
  ["Cc1c(-c2ccccc2)[nH]c2ccccc12", 52],
  ["S=C(S)NCC1CCC(CNC(=S)S)CC1 (stereo not drawn)", 41],
  ["Nc1nc(N)c2cc(Sc3ccc4ccccc4c3)ccc2n1", 65]
]}

q: Supply growth inhibition value. Item: `C=C(C)[C@@H]1CCc2c(O)c(O)c(=O)cc(C)c2C1`
a: 68

q: Provide one value: measured growth inhibition of `Cc1cc(C(C)(C)CC(C)(C)C)cc(O)c1O`
a: 83

q: Provide growth inhibition value for the following compound: `S=C1SCN(CCc2ccccc2)CN1CCc1ccccc1`
a: 92

q: Write down growth inhibition measured for item NP1(Oc2ccc(F)cc2)=NP(N)(Oc2ccc(F)cc2)=NP(Oc2ccc(F)cc2)(Oc2ccc(F)cc2)=N1 (stereo not drawn)
a: 4

q: Give me measured growth inhibition, please, for this compound: `N#CC(=S)Nc1cccc(Cl)c1`
a: 25

q: Let me know recorded growth inhibition for `COc1ccc(S(=O)(=O)N/N=C\c2cc([N+](=O)[O-])cc(I)c2O)c(OC)c1OC` , thanks.
a: 17

q: Give recorded growth inhibition. `O=C1C=CC(=Nc2ccccc2)c2ccccc21`
a: 53

q: Give the reported growth inhibition for this compound. O=S1(=O)c2ccccc2N=C(c2ccccc2Cl)CC1c1ccc(F)cc1 (stereo not drawn)
a: 15

q: Could you please provide reported growth inhibition for `Cc1cccc(/C=N\NC(=S)N2CCCCC2)n1` ? Thanks!
a: 97

q: Provide growth inhibition value for the following compound: `O=[N+]([O-])c1c(/C=N/Nc2ccccc2)oc(-c2ccc3c(c2)OCO3)c1-c1ccc2c(c1)OCO2`
a: 31

q: Please report growth inhibition for the following compound: `CCN(CC)CCNC(=O)c1nn(-c2ccc(Cl)cc2)c2c1CCc1cc(OC)ccc1-2`
a: 44

q: Determine from records and report growth inhibition for `O=C1CSC(=S)N1Cc1ccc(Cl)cc1Cl`
a: 99

q: Supply growth inhibition value. Item: CN(Cc1cnc2nc(N)nc(N)c2n1)c1ccc(C(=O)NC(CCC(=O)O)C(=O)O)c2ccccc12 (stereo not drawn)
a: 57

q: Identify measured growth inhibition corresponding to `N#C/C(=C/c1c(Cl)cccc1Cl)C(N)=O`
a: -24

q: Return value of growth inhibition for input `BrCc1ccccc1C(c1ccccc1)c1ccccc1` , no commentary.
a: 9

q: Please report growth inhibition for the following compound: `CCCCCCSc1nc(COC(=O)NC)c(COC(=O)NC)n1C`
a: 5

q: Name the recorded growth inhibition of the item `CC(C)(O)c1ccccc1C(c1ccccc1)c1ccccc1` in your answer.
a: -1

q: Give recorded growth inhibition. `Nc1ccc(S(=O)(=O)Nc2ccc(Nc3c4ccccc4nc4ccccc34)cc2)cc1`
a: 76

q: Tell us which growth inhibition value is on record for `O=Nc1ccc(Nc2ccccc2)cc1`
a: 97

---

Test: NCI Yeast Anticancer Drug Screen. Data for the wt1 strain (AID 149);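 also: 0% = growth of vehicle-treated wt1 cultures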
Conditions: S. cerevisiae wt1 strain (SPY 50644) growth inhibition; at 1.2 µM; active compounds read high
The panel holds about 79,000 compounds, 15% with a hit somewhere; the sample as a whole holds those more often. Residues, ends and D or L forms follow the SMILES beside them. *: point of attachment. CH2Cl = ClC*
Cut-off -10% on growth inhibition, inclusive. At or above means condition met; below means condition not met.

Look over these answered cases.
{"columns": ["Compound", "Category"],
 "data": [
  ["Oc1ccc(C=Nc2ccccc2O)cc1", "condition met"],
  ["ClCCn1c(CCl)nc2ccc(Cl)cc21", "condition not met"],
  ["On1cnc(=S)c2[nH]cnc21", "condition not met"],
  ["CC(=O)[O-].O=C([CH-]C(=O)c1ccccc1)c1ccccc1.O=C([CH-]C(=O)c1ccccc1)c1ccccc1.[Sm+3]", "condition met"],
  ["O=[N+]([O-])c1cccc2nc3ccccc3c(NCCc3cccc[n+]3[O-])c12", "condition met"],
  ["CC(=O)NC(CC(C)C)C(=O)NC(Cc1ccccc1)C(=O)CCl (stereo not drawn) (Ac-Leu-Phe-CH2Cl; configuration not given here)", "condition met"]
]}

q: Identify whether the reported growth inhibition of the following compound is -10% or greater: `O=C(O)c1[nH]c(=O)c2ccccc2c1Nc1ccccc1`
a: condition met

q: Quick check: does `CSc1s[s+]c(SC)c1-c1ccccc1` have growth inhibition greater than or equal to -10%?
a: condition met

q: Hello, I need to know if `O=S(=O)(c1cc(Cl)ccc1O)c1cc(Cl)ccc1O` has measured growth inhibition not below -10%. Thanks!
a: condition met

q: Record `CCOC(=O)[C@]1(Br)CC[C@@]1(Br)C(=O)OCC` ; criterion: growth inhibition no lower than -10%. Met?
a: condition not met
